Values from PubChem BioAssay (NCI)

- Tested on: M14 melanoma
- Test Name: NCI-60 one-dose screen, 48 h
- Condition Set: 10 µM unless noted
About 83,000 compounds went through this panel and 20% of them were active in at least one assay; those are over-represented in the sample as a whole. Activity calls are given as the source filed them. The calls were made as follows: active = growth percent below 10; inactive = the rest.
Give your call using only these classes: TRUE = active, FALSE = inactive

# input What is the recorded call for this compound in the test? `CC(C)Sc1nc(NCCc2c[nH]c3ccccc23)c(C#N)c(-c2ccccc2)n1`
# output FALSE

# input What is the recorded call for this compound in the test? `CCCCc1c(Nn2cnnn2)no[n+]1[O-]`
# output FALSE

* * *

- Test system: UACC-62 melanoma
- Test Name: NCI-60 one-dose screen, 48 h
- Condition Set: 10 µM unless noted
This is part of a sample that, as a whole, favours compounds with a hit. Of some 83,000 tested, about 20% had one in any assay. Active and inactive are the calls of the source. How the source made its calls: active means growth percent below 10; inactive means the rest.
Give your call using only these classes: Y for active, N for inactive

Study these solved cases before continuing.
{"columns": ["Compound", "Target Under Test", "Class"],
 "data": [
  ["CSc1ccc(NC(=O)c2ccc3nn(/C(C#N)=C/c4ccccn4)nc3c2)cc1", "UACC-62 melanoma", "Y"],
  ["COc1c(F)ccc(C(=O)Nc2ccc3nc(NC(=O)C4CCCN(S(=O)(=O)c5cccc(Br)c5)C4)sc3c2)c1F (centres undefined)", "UACC-62 melanoma", "N"],
  ["CCCSc1nc(NCCc2c[nH]c3ccccc23)c(C#N)c(-c2ccc(OC)cc2)n1", "UACC-62 melanoma", "N"],
  ["C/C(=N\\Nc1ccc(S(N)(=O)=O)cc1)c1ccc(N=Nc2c(Nc3ccccc3)[nH][nH]c2=O)cc1", "UACC-62 melanoma", "Y"]
]}

# input What is the recorded call for this compound in the test? `CCCCCCCCc1ccc(C(=O)Nc2cccc(P(=O)(O)O)c2)cc1`
# output N

# input What is the recorded call for this compound in the test? `O=[N+]([O-])c1ccc(/C=C/c2nc3ccccc3n3c(=S)[nH]nc23)cc1`
# output N

* * *

- System: NCI-H23 lung
- Test Name: NCI-60 one-dose screen, 48 h (100 = growth as untreated, 0 = no growth, -100 = all killed)
- Condition Set: 10 µM unless noted
The panel holds about 83,000 compounds, 20% with a hit somewhere; the sample as a whole holds those more often.
Property Measured: growth (%)
Give bare numbers, in %.

{"columns": ["Compound", "growth / %"],
 "data": [
  ["COc1cc(C2CC(c3cc(OC)c(OC)c(OC)c3)=NN2C(C)=O)ccc1OCc1ccccc1 (stereo not drawn)", 47.2],
  ["COc1cc(C2CC(c3ccc(S(=O)(=O)NCCNc4nc(Nc5ccc(F)cc5)nc(N(C)C)n4)cc3)=Nc3c(N)nc(N)nc3N2)cc(OC)c1OC (stereo not drawn)", 93.5],
  ["COc1ccc(NC(=O)Cn2c3c(sc2=O)[C@H]2[C@@H](O)[C@@H](O)[C@H](O)[C@@H]2CS3)cc1", 104],
  ["C=C1CC[C@@H]2[C@]3(C)COC(c4cn[nH]c4-c4cccc(Cl)c4)O[C@@H]3CC[C@@]2(C)[C@@H]1C/C=C1/C(=O)OCC1O (stereo partly drawn)", -79.8],
  ["N/C(=N\\c1nc2ccccc2s1)NC(=O)Nc1c(Cl)cccc1Cl", 31.9]
]}

Field: growth. Fill in for each record below.
1. CCN(CC)CCOc1ccc(Nc2ncc3cc(-c4ccc(O)c(C#N)c4)c(=O)n(C)c3n2)cc1
2. COc1cc(-c2cc(-c3cccc(OCC(=O)O)c3)[nH]c(=O)c2C#N)cc(OC)c1OC

# output
[98, 101]

# input Return growth for the following compound: `COc1ccc2c(c1)C(=N/N=C(\C)c1ccc(OC)c(S(N)(=O)=O)c1)C(=O)N2`
# output 94.1
